Tested on: SR
Assay: NCI tumour cell line growth inhibition, 48 h
Active and inactive are the calls of the source. Rule as the data show it: active = GI50 up to about 1.1 µM and inactive = higher.

>  <compound>
c1ccc(-c2nnc(-c3ccccn3)c3c2C[C@@H]2C[C@@H]4Cc5c(-c6ccccn6)nnc(-c6ccccn6)c5[C@@H]4[C@H]32)nc1

>  <GI50>
41.4 µM (inactive)

$$$$
>  <compound>
O=C(N/N=C(/c1ccccc1)C(F)(F)F)c1ccncc1

>  <GI50>
> 100 µM (inactive)

$$$$
>  <compound>
O=C(c1cccc(OCc2ccccc2)c1OCc1ccccc1)N1CCSC1=S

>  <GI50>
8.36 µM (inactive)

$$$$
>  <compound>
CC1=C(C(=O)NCc2ccccc2)C(c2ccccc2[N+](=O)[O-])C(C(=O)NCc2ccccc2)=C(C)N1

>  <GI50>
5.13 µM (inactive)

$$$$
>  <compound>
CCOc1cc(NC(C)=O)ccc1C(=O)NNS(=O)(=O)c1ccc(NC(C)=O)cc1

>  <GI50>
13.6 µM (inactive)

$$$$
>  <compound>
CC1(n2nc(-c3ccccc3)n(-c3ccccc3)c2=O)CSC1

>  <GI50>
> 100 µM (inactive)

$$$$
>  <compound>
CCN(CC)CC(=O)NC1c2ccccc2Oc2ccccc21

>  <GI50>
> 100 µM (inactive)

$$$$
>  <compound>
NC(Cc1cccnn1)C(=O)O (stereo not given)

>  <GI50>
> 100 µM (inactive)

$$$$
>  <compound>
O=C1/C(=C/c2cccc([N+](=O)[O-])c2)CCCc2ccccc21

>  <GI50>
2.86 µM (inactive)

$$$$
>  <compound>
O=C(O)CCc1nc2cc3ccccc3cc2[nH]c1=O

>  <GI50>
> 100 µM (inactive)

$$$$

Entry source: ChEMBL document CHEMBL1201862
